# assay_summary: Stability in aqueous media (PBS pH 7.4)
# Assay type: physicochemical
# Set-up: unit not given here
# conditions: phosphate buffer solution (PBS); PBS pH 7.4, 37° C., samples at T=0, 4, 24, 96 h; read-out: Stability grading (t1/2)
Non-standard residues stand in square brackets, D forms with d. Residues, ends and D or L forms follow the SMILES beside them. dHis(τ-Bn) = N[C@H](Cc1cn(Cc2ccccc2)cn1)C(=O)O; pGlu = O=C1CC[C@@H](C(=O)O)N1
Below: a set of entries, each annotated with reported half-life at 0.2 mg/ml.

molecule	assay_result
CCNC(=O)[C@@H]1CCCN1C(=O)[C@H](CCCNC(=N)N)NC(=O)[C@H](Cc1c[nH]c2ccccc12)NC(=O)[C@@H](Cc1cn(Cc2ccccc2)cn1)NC(=O)[C@H](Cc1ccc(O)cc1)NC(=O)[C@H](CO)NC(=O)[C@H](Cc1c[nH]c2ccccc12)NC(=O)[C@H](Cc1c[nH]cn1)NC(=O)[C@@H]1CCC(=O)N1 [Compound 67] ([pGlu]HWSY[dHis(τ-Bn)]WRP-NHEt)	< 96

Give its half-life at 0.2 mg/ml value. Item: CCNC(=O)[C@@H]1CCCN1C(=O)[C@H](Cc1ccc(O)cc1)NC(=O)[C@H](Cc1c[nH]c2ccccc12)NC(=O)[C@@H](CC(C)C)NC(=O)[C@H](Cc1ccc(O)cc1)NC(=O)[C@H](CO)NC(=O)[C@H](Cc1c[nH]c2ccccc12)NC(=O)[C@H](Cc1c[nH]cn1)NC(=O)[C@@H]1CCC(=O)N1 [Compound 49] ([pGlu]HWSY[dL]WYP-NHEt)
> 96
